Entry source: ChEMBL document CHEMBL3039007

# Target Entity: Solute carrier organic anion transporter family member 1B1 (Homo sapiens, UniProt Q9Y6L6)
# Sequence (Q9Y6L6 whole entry): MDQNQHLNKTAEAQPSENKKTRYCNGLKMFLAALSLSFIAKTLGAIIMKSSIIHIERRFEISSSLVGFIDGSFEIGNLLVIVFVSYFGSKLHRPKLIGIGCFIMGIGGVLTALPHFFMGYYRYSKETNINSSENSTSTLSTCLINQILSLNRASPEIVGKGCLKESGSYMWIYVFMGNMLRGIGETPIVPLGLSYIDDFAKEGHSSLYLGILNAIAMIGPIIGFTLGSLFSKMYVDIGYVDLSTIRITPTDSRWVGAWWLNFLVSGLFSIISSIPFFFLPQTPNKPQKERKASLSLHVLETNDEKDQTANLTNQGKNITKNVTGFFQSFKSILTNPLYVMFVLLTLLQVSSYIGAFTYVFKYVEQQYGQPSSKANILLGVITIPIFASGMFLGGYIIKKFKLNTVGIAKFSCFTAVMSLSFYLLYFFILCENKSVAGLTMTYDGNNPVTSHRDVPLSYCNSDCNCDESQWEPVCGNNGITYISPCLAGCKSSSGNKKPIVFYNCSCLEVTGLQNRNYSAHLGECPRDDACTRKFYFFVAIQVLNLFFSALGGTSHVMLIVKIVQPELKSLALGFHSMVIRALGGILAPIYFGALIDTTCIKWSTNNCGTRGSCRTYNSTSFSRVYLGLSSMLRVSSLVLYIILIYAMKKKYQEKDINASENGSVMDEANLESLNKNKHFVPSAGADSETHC
# Test Context: chinese hamster, cho, 10 µM
Observed Property: residual activity (%)
Give bare numbers, in %.

Reference set (5 entries):
Molecule	Target Entity	Measurement Unit	residual activity
C=C1[C@@H]2CC[C@@]3(C)[C@H](c4ccoc4)OC(=O)C[C@]13O[C@H]1CC(=O)C(C)(C)[C@H](CC(=O)OC)[C@]12C [METHYLANGOLENSATE]	Solute carrier organic anion transporter family member 1B1 (Homo sapiens, UniProt Q9Y6L6)	%	20.27
O=C1C=C(O)C(=O)c2ccccc21 [LAWSONE]	Solute carrier organic anion transporter family member 1B1 (Homo sapiens, UniProt Q9Y6L6)	%	99.76
COc1c2c(cc3c1OCO3)CC[N+](C)=C2.[Cl-] [COTARNINE CHLORIDE]	Solute carrier organic anion transporter family member 1B1 (Homo sapiens, UniProt Q9Y6L6)	%	85.95
Nc1c2ccccc2nc2ccccc12 [AMINACRINE]	Solute carrier organic anion transporter family member 1B1 (Homo sapiens, UniProt Q9Y6L6)	%	54.19
CC(C)=CC1C(CO)C1(C)C (centres undefined) [CHRYSANTHEMYL ALCOHOL]	Solute carrier organic anion transporter family member 1B1 (Homo sapiens, UniProt Q9Y6L6)	%	106.8

// batch mode: one residual activity value per listed entry
1. CCCCOc1ccc(OCCCN2CCOCC2)cc1.Cl [PRAMOXINE HYDROCHLORIDE]
2. COc1cc(OC)c2c(=O)cc(-c3ccccc3)oc2c1 [CHRYSIN DIMETHYL ETHER]
3. Clc1ccc(C(c2ccccc2Cl)C(Cl)Cl)cc1 (centres undefined) [MITOTANE]

### Response
1. 112
2. 112.1
3. 107.6

Looking up CCCCC[C@@H](O)[C@H]1C(=O)O[C@H](C)[C@@H](O)/C=C/C=C/C=C/C=C/C=C(\C)[C@@H](O)C[C@H](O)C[C@H](O)C[C@H](O)C[C@H](O)C[C@H](O)C[C@@H]1O [FILIPIN] , I see its residual activity listed as 96.46

###

# Target Entity: Solute carrier organic anion transporter family member 1B3 (Homo sapiens)
# Sequence (Q9NPD5 whole entry): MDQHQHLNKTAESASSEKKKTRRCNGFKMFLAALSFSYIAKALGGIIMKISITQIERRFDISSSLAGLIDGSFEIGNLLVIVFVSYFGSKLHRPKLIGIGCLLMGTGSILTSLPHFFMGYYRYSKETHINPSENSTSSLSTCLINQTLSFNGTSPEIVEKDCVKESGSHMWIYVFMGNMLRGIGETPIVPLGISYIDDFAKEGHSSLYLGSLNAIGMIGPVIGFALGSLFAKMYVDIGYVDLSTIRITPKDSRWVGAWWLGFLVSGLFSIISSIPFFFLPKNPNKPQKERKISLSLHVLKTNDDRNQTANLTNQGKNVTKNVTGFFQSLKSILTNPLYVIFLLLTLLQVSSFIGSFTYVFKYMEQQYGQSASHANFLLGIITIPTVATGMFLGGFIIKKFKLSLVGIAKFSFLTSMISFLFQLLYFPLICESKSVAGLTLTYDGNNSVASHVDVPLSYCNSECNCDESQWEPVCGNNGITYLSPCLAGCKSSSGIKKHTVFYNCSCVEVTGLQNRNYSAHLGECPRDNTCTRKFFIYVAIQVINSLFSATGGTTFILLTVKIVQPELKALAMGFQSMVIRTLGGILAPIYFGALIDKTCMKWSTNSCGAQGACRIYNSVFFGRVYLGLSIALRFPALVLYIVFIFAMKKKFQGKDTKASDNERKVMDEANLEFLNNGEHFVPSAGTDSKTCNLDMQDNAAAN
# Test Context: chinese hamster, cho, 10 µM
Rule: residual activity below 90% gives Condition met. Equal to or above 90% gives Condition not met.

Answered cases to consult:
> print(dat)
                                   molecule       answer.label
1  CCN1C[C@]2(C)CC[C@H](OC)[C@@]34C1[C@]1(OCO[C@@]15C[C@H](OC)[C@H]1C[C@]3(O)[C@@H]5[C@H]1OC)[C@@H](OC(C)=O)[C@H]24  Condition not met
2                 C=CCc1cc(OC)c2c(c1OC)OCO2  Condition not met
3  CC(CCc1ccccc1)NC(C)C(O)c1ccc(O)cc1.Cl (stereo unspecified) [NYLIDRIN HYDROCHLORIDE]  Condition not met
4  Cc1c(C(N)=O)cc([N+](=O)[O-])cc1[N+](=O)[O-] [DINITOLMIDE]  Condition not met
5  NC(=O)c1cc([N+](=O)[O-])cc([N+](=O)[O-])c1 [NITROMIDE]  Condition not met
6  CC1Cc2ccccc2N1NC(=O)c1ccc(Cl)c(S(N)(=O)=O)c1 (stereo unspecified) [INDAPAMIDE]  Condition not met
7  C[C@H]1CC[C@]2(NC1)O[C@H]1C[C@H]3[C@@H]4CC[C@H]5C[C@@H](O)CC[C@]5(C)[C@H]4CC[C@]3(C)[C@H]1[C@@H]2C.Cl  Condition not met
8  CCCC(=O)Nc1ccc(OCC(O)CNC(C)C)c(C(C)=O)c1.Cl (stereo unspecified) [ACEBUTOLOL HYDROCHLORIDE]  Condition not met

### Prompt Does the reported residual activity of `O=C(O)Cc1cc(I)c(Oc2cc(I)c(O)c(I)c2)c(I)c1` stay below 90%?
### Response Condition met

### Prompt # TODO verify residual activity < 90% strictly for this molecule: `CO[C@]12C[C@@H](COC(=O)c3cncc(Br)c3)CN(C)[C@@H]1Cc1cn(C)c3cccc2c13`
### Response Condition not met

### Prompt Say whether its residual activity is strictly beneath 90%. Entry: `CC1=C(C(=O)O)N2C(=O)[C@@H](NC(=O)[C@H](N)C3=CCC=CC3)[C@H]2SC1`
### Response Condition not met

### Prompt Take the molecule `CC[C@@]1(O)C(=O)OCc2c1cc1n(c2=O)Cc2cc3ccccc3nc2-1` and say whether its residual activity is less than 90%.
### Response Condition not met

### Prompt residual activity strictly < 90% for this molecule? CCN(CC)C(C)CN1c2ccccc2Sc2ccccc21.Cl (stereo unspecified) [ETHOPROPAZINE HYDROCHLORIDE]
### Response Condition met

### Prompt Identify whether the molecule `CC(=O)O[C@H]1CC[C@]2(C)C3=C(CC[C@H]2C1(C)C)[C@@]1(C)CC[C@H]([C@H](C)CCC=C(C)C)[C@]1(C)CC3` records residual activity below 90%.
### Response Condition met

### Prompt # TODO verify residual activity < 90% strictly for this molecule: `COc1cc(C/C=C/c2ccccc2)c(OC)cc1O`
### Response Condition met

### Prompt Quick check: does `CCCc1nc2c(C)cc(-c3nc4ccccc4n3C)cc2n1Cc1ccc(-c2ccccc2C(=O)O)cc1` have residual activity under 90%?
### Response Condition met

###

# Target Entity: Solute carrier organic anion transporter family member 1B1 (Homo sapiens)
# Sequence (Q9Y6L6 whole entry): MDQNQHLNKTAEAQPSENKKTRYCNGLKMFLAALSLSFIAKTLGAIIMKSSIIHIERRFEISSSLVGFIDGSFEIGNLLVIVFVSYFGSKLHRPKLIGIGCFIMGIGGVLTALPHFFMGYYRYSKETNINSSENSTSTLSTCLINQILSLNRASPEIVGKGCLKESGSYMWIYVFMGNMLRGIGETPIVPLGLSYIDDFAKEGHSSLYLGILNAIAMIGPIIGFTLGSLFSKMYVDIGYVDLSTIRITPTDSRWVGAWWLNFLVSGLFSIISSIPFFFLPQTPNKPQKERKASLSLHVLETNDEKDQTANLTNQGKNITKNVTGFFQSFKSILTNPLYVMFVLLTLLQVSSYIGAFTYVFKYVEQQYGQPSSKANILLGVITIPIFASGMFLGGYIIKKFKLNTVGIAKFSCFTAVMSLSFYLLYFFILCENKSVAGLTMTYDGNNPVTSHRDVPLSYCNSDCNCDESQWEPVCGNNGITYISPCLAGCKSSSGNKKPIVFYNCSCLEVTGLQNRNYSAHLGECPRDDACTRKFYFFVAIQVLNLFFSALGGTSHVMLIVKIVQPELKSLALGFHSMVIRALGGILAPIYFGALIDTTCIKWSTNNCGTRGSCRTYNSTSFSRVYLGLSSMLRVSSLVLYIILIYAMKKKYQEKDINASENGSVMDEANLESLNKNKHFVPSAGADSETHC
# Test Context: chinese hamster, cho, 10 µM
Observed Property: residual activity (%)
One number for each entry, in %.

Compound	Target Entity	Value Reported
O=C(O)CCCCC1CCSS1 (stereo unspecified)	Solute carrier organic anion transporter family member 1B1 (Homo sapiens)	129.1

Batch request: residual activity per item, same order as input.
1. CO[C@H]1/C=C/O[C@@]2(C)Oc3c(C)c(O)c4c(O)c(c(/C=N/N5CCN(C)CC5)c(O)c4c3C2=O)NC(=O)/C(C)=C\C=C\[C@H](C)[C@H](O)[C@@H](C)[C@@H](O)[C@@H](C)[C@H](OC(C)=O)[C@@H]1C
2. CCC[C@@H]1C[C@@H](C(=O)N[C@@H]([C@H]2O[C@H](SC)[C@H](O)[C@@H](O)[C@H]2O)[C@@H](C)O)N(C)C1.Cl.O [LINCOMYCIN HYDROCHLORIDE]
3. CC(=O)OCC(CCn1cnc2cnc(N)nc21)COC(C)=O
4. COc1ccc(CCN2CCC(Nc3nc4ccccc4n3Cc3ccc(F)cc3)CC2)cc1
5. CC(=O)C1=C(O)C=C2Oc3c(C(C)=O)c(O)c(C)c(O)c3[C@@]2(C)C1=O [(+)-USNIC ACID]
6. CCCc1occc(=O)c1/C=C/O [2-PROPYL-3-HYDROXYETHYLENEPYRAN-4-ONE]

### Response
[33.63, 83.01, 68.22, 127.5, 31.05, 128.5]

Provide residual activity values for the following items, in order.
1. C[n+]1c2cc(N)ccc2cc2ccc(N)cc21.[Cl-]
2. C=C1CC/C=C(\C)CC[C@@H]2[C@@H]1CC2(C)C
3. CC(C)=CC1C(C(=O)O)C1(C)C (stereo unspecified)
4. Nc1ccc(C(=O)O)cc1

### Response
1: 105.1; 2: 99.94; 3: 83.79; 4: 85.02
